Kindly supply the reported DC50 values for the records listed here.
Target: CDK12 (Homo sapiens, UniProt Q9NYV4)
Sequence (Q9NYV4 whole entry): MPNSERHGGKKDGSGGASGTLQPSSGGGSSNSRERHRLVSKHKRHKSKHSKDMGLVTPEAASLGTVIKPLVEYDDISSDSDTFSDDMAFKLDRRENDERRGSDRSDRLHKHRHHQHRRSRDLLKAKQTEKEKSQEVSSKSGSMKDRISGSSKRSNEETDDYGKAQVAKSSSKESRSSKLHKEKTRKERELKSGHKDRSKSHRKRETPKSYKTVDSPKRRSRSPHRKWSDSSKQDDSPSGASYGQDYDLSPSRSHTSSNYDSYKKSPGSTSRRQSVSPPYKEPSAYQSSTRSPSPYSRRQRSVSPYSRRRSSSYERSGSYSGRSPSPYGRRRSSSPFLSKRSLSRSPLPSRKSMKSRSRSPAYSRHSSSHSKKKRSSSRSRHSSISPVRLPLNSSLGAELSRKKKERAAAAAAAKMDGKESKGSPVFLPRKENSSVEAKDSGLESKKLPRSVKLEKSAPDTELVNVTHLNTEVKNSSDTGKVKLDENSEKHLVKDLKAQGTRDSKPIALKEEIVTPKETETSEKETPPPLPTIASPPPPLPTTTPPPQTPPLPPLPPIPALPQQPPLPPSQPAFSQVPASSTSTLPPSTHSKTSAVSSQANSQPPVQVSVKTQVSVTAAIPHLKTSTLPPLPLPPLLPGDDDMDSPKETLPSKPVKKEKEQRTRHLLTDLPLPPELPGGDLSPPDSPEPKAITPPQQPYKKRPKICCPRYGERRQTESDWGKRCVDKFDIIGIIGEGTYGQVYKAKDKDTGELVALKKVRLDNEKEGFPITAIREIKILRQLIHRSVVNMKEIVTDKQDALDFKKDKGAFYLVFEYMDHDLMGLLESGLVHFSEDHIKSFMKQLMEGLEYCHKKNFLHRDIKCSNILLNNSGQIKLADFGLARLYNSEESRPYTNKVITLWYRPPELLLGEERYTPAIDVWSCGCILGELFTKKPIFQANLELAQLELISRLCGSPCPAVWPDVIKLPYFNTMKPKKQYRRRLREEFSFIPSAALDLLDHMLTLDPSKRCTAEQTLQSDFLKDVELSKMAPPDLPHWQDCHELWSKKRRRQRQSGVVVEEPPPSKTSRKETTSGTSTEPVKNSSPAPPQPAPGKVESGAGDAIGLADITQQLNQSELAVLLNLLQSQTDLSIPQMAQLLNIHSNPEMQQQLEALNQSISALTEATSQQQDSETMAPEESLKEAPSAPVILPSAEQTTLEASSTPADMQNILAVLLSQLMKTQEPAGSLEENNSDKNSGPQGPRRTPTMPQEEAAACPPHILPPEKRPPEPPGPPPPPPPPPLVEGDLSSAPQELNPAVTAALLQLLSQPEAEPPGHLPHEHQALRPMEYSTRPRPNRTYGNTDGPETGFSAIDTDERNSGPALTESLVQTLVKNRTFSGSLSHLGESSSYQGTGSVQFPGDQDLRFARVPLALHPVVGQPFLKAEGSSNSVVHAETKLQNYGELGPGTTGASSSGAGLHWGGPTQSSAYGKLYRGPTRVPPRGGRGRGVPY
Sequence (O75909 whole entry partner): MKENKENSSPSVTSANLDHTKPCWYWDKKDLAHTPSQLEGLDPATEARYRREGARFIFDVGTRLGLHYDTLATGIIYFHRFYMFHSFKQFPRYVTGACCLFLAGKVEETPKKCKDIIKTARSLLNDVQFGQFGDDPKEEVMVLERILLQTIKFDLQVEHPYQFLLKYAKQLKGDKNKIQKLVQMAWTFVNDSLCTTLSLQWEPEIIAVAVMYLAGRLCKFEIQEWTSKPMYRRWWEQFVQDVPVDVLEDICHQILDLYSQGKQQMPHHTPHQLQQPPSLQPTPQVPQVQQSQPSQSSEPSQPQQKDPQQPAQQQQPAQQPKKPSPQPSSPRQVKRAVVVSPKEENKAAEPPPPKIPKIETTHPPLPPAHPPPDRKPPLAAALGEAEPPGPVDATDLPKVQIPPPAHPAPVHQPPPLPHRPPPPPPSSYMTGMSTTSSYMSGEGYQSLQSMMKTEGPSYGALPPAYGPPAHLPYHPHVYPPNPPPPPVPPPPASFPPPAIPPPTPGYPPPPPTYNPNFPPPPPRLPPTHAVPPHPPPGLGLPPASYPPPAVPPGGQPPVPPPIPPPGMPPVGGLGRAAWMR
Assay: Western blot degradation of CDK12 (Example 2)
Format: cell-based
Set-up: degradation of CDK12/13 protein in leukemia cells KASUMI-1, MV4-11, and Jurkat; endogenous in cells
Conditions: DC50 classes; cell line not given; read-out: CDK12 degradation Activity

Fill in the recorded DC50 for this compound, with CDK12 (Homo sapiens, UniProt Q9NYV4) as test system: Cc1ncsc1-c1ccc([C@H](C)NC(=O)[C@@H]2C[C@@H](O)CN2C(=O)[C@@H](NC(=O)C2CC3(CC(Nc4ccc(N(C(=O)NCc5ccccc5)[C@H]5CC[C@H](Nc6ccc(C#N)cn6)CC5)cc4)C3)C2)C(C)(C)C)cc1 (stereo partly shown) 3000 to 10000 nM

Fill in the recorded DC50 for this compound, with CDK12 (Homo sapiens, UniProt Q9NYV4) as test system: Cc1ncsc1-c1ccc([C@H](C)NC(=O)[C@@H]2C[C@@H](O)CN2C(=O)[C@@H](NC(=O)CN2CCN(c3ncc(-c4ccc(N(C(=O)NCc5ccccc5)[C@H]5CC[C@H](Nc6ccc(C#N)cn6)CC5)cc4)cn3)CC2)C(C)(C)C)cc1 (racemic) [Formula 81] < 100 nM

Fill in the recorded DC50 for this compound, with CDK12 (Homo sapiens, UniProt Q9NYV4) as test system: Cc1ncsc1-c1ccc([C@H](C)NC(=O)[C@@H]2C[C@@H](O)CN2C(=O)[C@@H](NC(=O)CN2CCN(c3ncc(-c4ccc(N(C(=O)NCc5ccccc5)[C@H]5CC[C@H](Nc6ccc(C#N)cn6)CC5)cc4)cn3)CC2)C(C)(C)C)cc1 [Formula 79] < 100 nM

Fill in the recorded DC50 for this compound, with CDK12 (Homo sapiens, UniProt Q9NYV4) as test system: N#Cc1ccc(NC2CCC(N(C(=O)NCc3ccccc3)c3ccc(-c4ccc(=O)n(CCOCCOCCNc5cccc6c5C(=O)N(C5CCC(=O)NC5=O)C6=O)c4)cc3)CC2)nc1 (stereo not shown) 500 to 1000 nM
